Target: T1, full-length human GIPR with an N-terminal FLAG tag (human, UniProt P48546 22-466)
T1 sequence (looked up): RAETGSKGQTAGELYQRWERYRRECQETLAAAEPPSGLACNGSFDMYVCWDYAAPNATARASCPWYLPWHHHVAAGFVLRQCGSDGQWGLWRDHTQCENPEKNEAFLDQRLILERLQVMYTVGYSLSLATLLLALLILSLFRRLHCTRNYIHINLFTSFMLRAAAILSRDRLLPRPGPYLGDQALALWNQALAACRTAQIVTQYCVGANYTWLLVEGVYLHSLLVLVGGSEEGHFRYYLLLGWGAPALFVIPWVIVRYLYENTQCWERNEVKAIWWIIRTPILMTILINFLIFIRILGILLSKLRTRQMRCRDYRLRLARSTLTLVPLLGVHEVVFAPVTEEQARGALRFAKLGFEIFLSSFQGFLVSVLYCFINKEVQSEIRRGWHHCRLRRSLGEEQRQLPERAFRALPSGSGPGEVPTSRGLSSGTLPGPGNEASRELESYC
Assay: cell-based or functional assay
Starred links: 1 amine or outer side, 2 acyl side, 3 side chain; linkers in the order of their positions; H or OH if unused. Non-standard residues stand in square brackets, D forms with d. Groups on a side chain read outwards from the residue. No end group written: not given here. *: point of attachment. C16 diacid = O=C(O)CCCCCCCCCCCCCCC(=O)*; C15 diacid = O=C(O)CCCCCCCCCCCCCC(=O)*; γGlu = O=C(O)[C@H](CCC(=O)[*:2])N[*:1]; NMeY = CN[C@@H](Cc1ccc(O)cc1)C(=O)O; AEEA = NCCOCCOCC(=O)O; Aib = CC(C)(N)C(=O)O
Please provide measured Human GIPR cAMP, HEK293T EC50 for the entries that follow.
Hi! Could you send only the number? It should be in pM, unit omitted.

Enquiry: Return Human GIPR cAMP, HEK293T EC50 (reported value) for this binder: [NMeY][Aib]EGTFISDYSIALDRKHQ[Aib]NFVNWLLAQSPSSGAPPPS-NH2 (not fully specified (residue 17)) [Compound 65]
Return: 0.3

Enquiry: Return Human GIPR cAMP, HEK293T EC50 (reported value) for this binder: [NMeY][Aib]EGTFISDYSIALDRIHQ[Aib]K([AEEA-AEEA-γGlu-C16 diacid])FVNWLLAQK [Compound 9]
Return: 0.2

Enquiry: Return Human GIPR cAMP, HEK293T EC50 (reported value) for this binder: Me-Y[Aib]EGTFISDYSIAK([γGlu-γGlu-γGlu-C15 diacid])DR[Aib]AQ[Aib]NFVNWLLAQSPSSGAPPPS-NH2 [Compound 18]
Return: 0.2

Enquiry: Return Human GIPR cAMP, HEK293T EC50 (reported value) for this binder: [NMeY][Aib]EGTFISDYSIALDRK([AEEA-AEEA-γGlu-C15 diacid])HQ[Aib]NFVNWLLAQS-OH (also: Me-Tyr methyl position not given here) [Compound 37]
Return: 0.2

Cited source: patent US20220227830A1
